Tested on: NCI-H1876 complex spheroid viability
Assay: Anticancer human tumor NCI-H1876 cell line growth inhibition [LSD1];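 further: spheroids exposed to compounds for one week before readout; 100% = DMSO vehicle-treated spheroids so lower means fewer viable cells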
Settings: second compound 1 µM; first compound 0.01 µM; active compounds read low
Entries whose viability, T/C is below 60% take y; entries at or above 60% take n.

Please review the entries below; each comes with its answer.
Molecule: Cn1ncnc1C1c2n[nH]c(=O)c3cc(F)cc(c23)NC1c1ccc(F)cc1 (stereo unspecified) + NC1CC1c1ccc(-c2cccc(O)c2)cc1
Classification: n
//
Molecule: CC(C)CC(NC(=O)C(Cc1ccccc1)NC(=O)c1cnccn1)B(O)O (stereo unspecified) + NC1CCC(NC2CC2c2ccccc2)CC1
Classification: y
//
Molecule: Nc1ncn(C2CC(O)C(CO)O2)c(=O)n1 (stereo unspecified) + NC1CC1c1ccc(-c2cccc(O)c2)cc1
Classification: n
//
Molecule: CC1COCCN1c1cc(-c2ccnn2C)c2ccnc(-c3ccn[nH]3)c2n1 (stereo unspecified) + NC1CC1c1ccc(-c2cccc(O)c2)cc1
Classification: y
//
Molecule: CC(C)CC(NC(=O)C(Cc1ccccc1)NC(=O)c1cnccn1)B(O)O (stereo unspecified) + NC1CC1c1ccc(-c2cccc(O)c2)cc1
Classification: y
//
Molecule: Nc1ncn(C2CC(O)C(CO)O2)c(=O)n1 (stereo unspecified) + NC1CCC(NC2CC2c2ccccc2)CC1
Classification: n
//
Molecule: O=C(C=Cn1cnc(-c2cc(C(F)(F)F)cc(C(F)(F)F)c2)n1)NNc1cnccn1 + NC1CCC(NC2CC2c2ccccc2)CC1
Classification: n
//
Molecule: CC(C)CC(NC(=O)CNC(=O)c1cc(Cl)ccc1Cl)B1OC(=O)CC(CC(=O)O)(C(=O)O)O1 (stereo unspecified) + NC1CCC(NC2CC2c2ccccc2)CC1
Classification: y

In the record for O=C(C=Cn1cnc(-c2cc(C(F)(F)F)cc(C(F)(F)F)c2)n1)NNc1cnccn1 + NC1CC1c1ccc(-c2cccc(O)c2)cc1 , is viability, T/C less than 60%?
n

hey, is viability, T/C for COc1cc(Nc2ncc3c(n2)-c2ccc(Cl)cc2C(c2c(F)cccc2OC)=NC3)ccc1C(=O)O + NC1CC1c1ccc(-c2cccc(O)c2)cc1 lower than 60% or not?
n

Please indicate whether the reported viability, T/C of Cn1ncnc1C1c2n[nH]c(=O)c3cc(F)cc(c23)NC1c1ccc(F)cc1 (stereo unspecified) + NC1CCC(NC2CC2c2ccccc2)CC1 is strictly below 60%.
n

Report whether reported viability, T/C is lower than 60% (strictly) for CC[C@@]1(O)C(=O)OCc2c1cc1n(c2=O)Cc2cc3c(CN(C)C)c(O)ccc3nc2-1 + NC1CC1c1ccc(-c2cccc(O)c2)cc1
y

Please determine if COc1cc(Nc2ncc3c(n2)-c2ccc(Cl)cc2C(c2c(F)cccc2OC)=NC3)ccc1C(=O)O + NC1CCC(NC2CC2c2ccccc2)CC1 is below 60% in terms of viability, T/C.
y

Below 60% on viability, T/C? Entry CC1COCCN1c1cc(-c2ccnn2C)c2ccnc(-c3ccn[nH]3)c2n1 (stereo unspecified) + NC1CCC(NC2CC2c2ccccc2)CC1
n

Dear colleague, could you confirm whether viability, T/C of CC[C@@]1(O)C(=O)OCc2c1cc1n(c2=O)Cc2cc3c(CN(C)C)c(O)ccc3nc2-1 + NC1CCC(NC2CC2c2ccccc2)CC1 falls below 60%? Thanks.
y

Record CC(C)CC(NC(=O)CNC(=O)c1cc(Cl)ccc1Cl)B1OC(=O)CC(CC(=O)O)(C(=O)O)O1 (stereo unspecified) + NC1CC1c1ccc(-c2cccc(O)c2)cc1 : is its viability, T/C strictly below 60%?
y

* * *

Test system: NCI-H1876 complex spheroid viability
Assay: Anticancer human tumor NCI-H1876 cell line growth inhibition [LSD1];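 further: spheroids exposed to compounds for one week before readout; 100% = DMSO vehicle-treated spheroids so lower means fewer viable cells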
Details: second compound 0.316 µM; first compound 3.16 µM; active compounds read low
// reported viability, T/C for each item listed

Please review the entries below; each comes with its answer.
Compound: CC1(C)CCC(CN2CCN(c3ccc(C(=O)NS(=O)(=O)c4ccc(NCC5CCOCC5)c([N+](=O)[O-])c4)c(Oc4cnc5[nH]ccc5c4)c3)CC2)=C(c2ccc(Cl)cc2)C1 + NC1CC1c1ccc(-c2cccc(O)c2)cc1
Measured Property: viability, T/C
Val: 19.3%

Compound: CC1COCCN1c1cc(C2(S(C)(=N)=O)CC2)nc(-c2ccnc3[nH]ccc23)n1 (stereo not given) + NC1CC1c1ccc(-c2cccc(O)c2)cc1
Measured Property: viability, T/C
Val: 88.5%

Compound: CC(C)c1c(-c2ccccc2)nc2c(C#N)c[nH]n2c1=O + NC1CC1c1ccc(-c2cccc(O)c2)cc1
Measured Property: viability, T/C
Val: 91%

Compound: COc1ccc([C@@H](O)c2cc(-c3ncnc4cc(N5CCOCC5)ccc34)c(F)cc2Cl)nn1 + NC1CCC(NC2CC2c2ccccc2)CC1
Measured Property: viability, T/C
Val: 50.7%

Compound: O=C(c1cc(Cc2n[nH]c(=O)c3ccccc23)ccc1F)N1CCN(C(=O)C2CC2)CC1 + NC1CC1c1ccc(-c2cccc(O)c2)cc1
Measured Property: viability, T/C
Val: 66.8%

Which viability, T/C value is on record for COc1ccc([C@@H](O)c2cc(-c3ncnc4cc(N5CCOCC5)ccc34)c(F)cc2Cl)nn1 + NC1CC1c1ccc(-c2cccc(O)c2)cc1 ?
33.3%

Give its viability, T/C value. Item: CC(C)c1c(-c2ccccc2)nc2c(C#N)c[nH]n2c1=O + NC1CCC(NC2CC2c2ccccc2)CC1
93.1%

Reported viability, T/C, compound O=C(c1cc(Cc2n[nH]c(=O)c3ccccc23)ccc1F)N1CCN(C(=O)C2CC2)CC1 + NC1CCC(NC2CC2c2ccccc2)CC1 : ____
69.5%

Could you tell me which viability, T/C is on file for CC1COCCN1c1cc(C2(S(C)(=N)=O)CC2)nc(-c2ccnc3[nH]ccc23)n1 (stereo not given) + NC1CCC(NC2CC2c2ccccc2)CC1 ?
86.2%

Looking for the measured viability, T/C of CC1(C)CCC(CN2CCN(c3ccc(C(=O)NS(=O)(=O)c4ccc(NCC5CCOCC5)c([N+](=O)[O-])c4)c(Oc4cnc5[nH]ccc5c4)c3)CC2)=C(c2ccc(Cl)cc2)C1 + NC1CCC(NC2CC2c2ccccc2)CC1 , can you help?
24.3%

* * *

Here the recorded viability, T/C is given for each entry.
Test system: NCI-H1876 complex spheroid viability
Assay: Anticancer human tumor NCI-H1876 cell line growth inhibition [LSD1];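 further: spheroids exposed to compounds for one week before readout; 100% = DMSO vehicle-treated spheroids so lower means fewer viable cells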
Conditions: second compound 3.16 µM; first compound 0.3 µM; active compounds read low
Just the number in %, nothing appended.

Sample records with viability, T/C:
Molecule: Nc1ncn(C2CC(O)C(CO)S2)c(=O)n1 (stereo unspecified) + NC1CC1c1ccc(-c2cccc(O)c2)cc1
viability, T/C, %: 49.1

Molecule: NS(=O)(=O)OCC1CC(n2ccc3c(NC4CCc5ccccc54)ncnc32)CC1O (stereo unspecified) + NC1CCC(NC2CC2c2ccccc2)CC1
viability, T/C, %: 35.9

Molecule: CCc1c2c(nc3ccc(O)cc13)-c1cc3c(c(=O)n1C2)COC(=O)[C@]3(O)CC + NC1CC1c1ccc(-c2cccc(O)c2)cc1
viability, T/C, %: 0.32

Molecule: Nc1ccn(C2OC(CO)C(O)C2(F)F)c(=O)n1 (stereo unspecified) + NC1CC1c1ccc(-c2cccc(O)c2)cc1
viability, T/C, %: 7.36

Molecule: Nc1ncn(C2CC(O)C(CO)S2)c(=O)n1 (stereo unspecified) + NC1CCC(NC2CC2c2ccccc2)CC1
viability, T/C, %: 63.2

Report viability, T/C for Nc1ccccc1NC(=O)c1ccc(CNC(=O)OCc2cccnc2)cc1 + NC1CCC(NC2CC2c2ccccc2)CC1 please.
21.2

Given the molecule NS(=O)(=O)OCC1CC(n2ccc3c(NC4CCc5ccccc54)ncnc32)CC1O (stereo unspecified) + NC1CC1c1ccc(-c2cccc(O)c2)cc1 , what is its reported viability, T/C?
46.7

Reported viability, T/C for COc1cc(C2c3cc4c(cc3C(OC3OC5COC(C)OC5C(O)C3O)C3COC(=O)C23)OCO4)cc(OC)c1O (stereo unspecified) + NC1CC1c1ccc(-c2cccc(O)c2)cc1 : what is it?
13

Query: viability, T/C; subject: Nc1ccccc1NC(=O)c1ccc(CNC(=O)OCc2cccnc2)cc1 + NC1CC1c1ccc(-c2cccc(O)c2)cc1
8.61

What value of measured viability, T/C is listed for Nc1ccn(C2OC(CO)C(O)C2(F)F)c(=O)n1 (stereo unspecified) + NC1CCC(NC2CC2c2ccccc2)CC1 ?
9.56

Which viability, T/C value is on record for COc1cc(C2c3cc4c(cc3C(OC3OC5COC(C)OC5C(O)C3O)C3COC(=O)C23)OCO4)cc(OC)c1O (stereo unspecified) + NC1CCC(NC2CC2c2ccccc2)CC1 ?
29.5

So what does the record say about viability, T/C for CCc1c2c(nc3ccc(O)cc13)-c1cc3c(c(=O)n1C2)COC(=O)[C@]3(O)CC + NC1CCC(NC2CC2c2ccccc2)CC1 ?
0.45

What value of viability, T/C has been recorded for this entry: CCN(c1cc(-c2ccc(CN3CCOCC3)cc2)cc(C(=O)NCc2c(C)cc(C)[nH]c2=O)c1C)C1CCOCC1 + NC1CCC(NC2CC2c2ccccc2)CC1
108
